IC50 reference
# Measured on: PDK1 (Homo sapiens (Human))
# Method notes: PDK1 kinase assay (coupled PDK1/AKT/FAM-crosstide assay, IMAP fluorescence polarization)
# Format: biochemical
# Experimental conditions: inhibition of PDK1 in vitro
Quantity name: IC50

> print(dat)
                                    compound                  measured.on  endpoint.result
 1  C[C@H](NC(=O)c1nc(C#N)cnc1NCc1ccc(-c2cn(CCCN)c3ncnc(N)c23)cc1)c1ccc(F)c(F)c1  PDK1 (Homo sapiens (Human))         < 100 nM
 2  Nc1cccc(-c2nc(-c3ccc(CNc4ncc(C(F)(F)F)cc4C(=O)Nc4ccc(F)cc4)cc3)cnc2N)c1  PDK1 (Homo sapiens (Human))         < 100 nM
 3  C[C@H](NC(=O)c1cc(C#N)cnc1NCc1ccc(-c2ncnc(N)c2F)cc1)c1ccc(F)cc1  PDK1 (Homo sapiens (Human))        > 5000 nM
 4  C[C@H](NC(=O)c1cc(C#N)cnc1NCc1ccc(-c2ccc(C#N)nc2)cc1)c1ccc(F)cc1  PDK1 (Homo sapiens (Human))        > 5000 nM
 5  C[C@H](NC(=O)c1nc(C#N)cnc1NCc1ccc(-c2c[nH]c3ncnc(N)c23)cc1)c1ccc(F)c(F)c1  PDK1 (Homo sapiens (Human))         < 100 nM
 6  Nc1ncnc2c1c(-c1ccc(CNc3ncc(C(F)(F)F)cc3C(=O)NCc3ccc(F)c(F)c3)cc1)cn2CCO  PDK1 (Homo sapiens (Human))         < 100 nM
 7  Nc1n[nH]c2ncc(-c3ccc(CNc4ncc(C(F)(F)F)cc4C(=O)Nc4cncc(F)c4)cc3)cc12  PDK1 (Homo sapiens (Human))         < 100 nM
 8  O=C(NCc1ccc(F)cc1)c1cccnc1NCc1ccc(-c2cnc3[nH]c(=O)[nH]c3c2)cc1  PDK1 (Homo sapiens (Human))         < 100 nM
 9  CCCn1cc(-c2ccc(CNc3ncc(C(F)(F)F)cc3C(=O)Nc3ccc(F)cc3)cc2)c2c(N)ncnc21  PDK1 (Homo sapiens (Human))         < 100 nM
10  Nc1n[nH]c2ncc(-c3ccc(CNc4ncc(C(F)(F)F)cc4C(=O)NCC4CC4)cc3)cc12  PDK1 (Homo sapiens (Human))   100 to 1000 nM
11  C[C@H](NC(=O)c1cc(C#N)cnc1NCc1ccc(-c2cnc(N)c(CC3CCNC3)n2)cc1)c1ccc(F)cc1 (stereo partly drawn)  PDK1 (Homo sapiens (Human))         < 100 nM
12  C[C@H](NC(=O)c1nc(C#N)cnc1NCc1ccc(-c2cnc3[nH]c(=O)[nH]c3c2)cc1)c1ccc(F)c(F)c1  PDK1 (Homo sapiens (Human))         < 100 nM
13  Cn1c(-c2ccc(CNc3ncc(C(F)(F)F)cc3C(=O)Nc3ccc(F)cc3)cc2)cc2c(N)ncnc21  PDK1 (Homo sapiens (Human))         < 100 nM
14  NCCCc1nc(-c2ccc(CNc3ncc(C(F)(F)F)cc3C(=O)Nc3ccc(F)cc3)cc2)cnc1N  PDK1 (Homo sapiens (Human))         < 100 nM
15  Nc1ccc(-c2ccc(CNc3ncccc3C(=O)Nc3ccc(F)cc3)cc2)cn1  PDK1 (Homo sapiens (Human))  1000 to 5000 nM

====

# EC50 listing for each entry below
# System: phospho-akt (Thr308) in PC-3 cells
# Method notes: Inhibition of phospho-akt (Thr308) in PC-3 cells, MSD phospho-akt 308 ELISA kit
# Assay type: cell-based
# Experimental conditions: Homo sapiens; inhibition of P308 Akt in PC-3 cells using MSD, 2 hours, no serum; read-out: EC50
Quantity name: EC50

> print(dat)
                           structure.string  quantity.name  endpoint.result
1  C[C@H](NC(=O)c1cc(C#N)cnc1NCc1ccc(-c2ccnc(C#N)c2)cc1)c1ccc(F)cc1           EC50          > 10 µM
2  Nc1n[nH]c2ncc(-c3ccc(CNc4ncc(C(F)(F)F)cc4C(=O)Nc4ccc(F)cc4)cc3)nc12           EC50           < 1 µM
3  Nc1ncnc2ccc(-c3ccc(CNc4ncc(S(=O)(=O)NCCO)cc4C(=O)NCc4ccc(F)c(F)c4)s3)cc12           EC50           < 1 µM
4  C[C@H](NC(=O)c1cc(C#N)cnc1NCc1cnc(-c2cnc3[nH]ncc3c2)cn1)c1ccc(F)cc1           EC50          > 10 µM

====

# Measured on: PDK1 (Homo sapiens (Human), UniProt O15530)
# Sequence (O15530 51-359): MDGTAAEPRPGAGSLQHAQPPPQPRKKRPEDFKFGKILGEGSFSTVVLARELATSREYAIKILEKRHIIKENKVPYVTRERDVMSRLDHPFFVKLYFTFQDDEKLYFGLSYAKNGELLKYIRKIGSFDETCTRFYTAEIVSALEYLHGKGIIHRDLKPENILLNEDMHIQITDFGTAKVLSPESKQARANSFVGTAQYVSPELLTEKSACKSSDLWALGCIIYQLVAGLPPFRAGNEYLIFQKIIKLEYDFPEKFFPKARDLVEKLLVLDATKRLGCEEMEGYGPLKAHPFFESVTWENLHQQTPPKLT
# Method notes: PDK1 kinase assay (coupled PDK1/AKT/FAM-crosstide assay, IMAP fluorescence polarization)
# Format: biochemical
# Experimental conditions: inhibition of PDK1 in vitro
pIC50: −log10 of the molar value.
Quantity name: pIC50

> print(dat)
                                    compound  endpoint.result
 1  C[C@H](NC(=O)c1nc(C#N)cnc1NCC1CCC(c2cnc3[nH]nc(N)c3c2)CC1)c1ccc(F)c(F)c1 (some centres unmarked) [Example 60]           > 7.00
 2  C[C@H](NC(=O)c1cc(C#N)cnc1NCc1ccc(-c2cnc(N)cn2)cc1F)c1ccc(F)cc1 [Example 130]           > 7.00
 3  Nc1n[nH]c2ncc(-c3ccc(CNc4ncc(C(F)(F)F)cc4C(=O)NCCC4CC4)cc3)cc12 [Example 269]           > 7.00
 4  CNC(=O)C[C@@H](Nc1ncc(C#N)cc1C(=O)N[C@@H](C)c1ccc(F)cc1)c1ccc(-c2c[nH]c3ncnc(N)c23)cc1 [Example 47]           > 7.00
 5  N#Cc1cnc(NCc2ccc(-c3cnc4[nH]c(=O)[nH]c4c3)cc2)c(C(=O)NCc2ccc(F)c(F)c2)n1 [Example 364]           > 7.00
 6  COC(=O)c1ccc(-c2ccc(CNc3ncc(C#N)cc3C(=O)N[C@@H](C)c3ccc(F)cc3)cc2)cn1 [Example 112]           < 5.30
 7  C[C@H](NC(=O)c1cc(C#N)cnc1NCc1ccc(-c2c[nH]c3ncnc(N)c23)c(F)c1)c1ccc(F)cc1 [Example 100]           > 7.00
 8  C[C@H](NC(=O)c1cc(C#N)cnc1NCc1ccc(-c2ccc(NCCN3CCOCC3)nc2)cc1)c1ccc(F)cc1 [Example 223]           < 5.30
 9  Cc1cc(N)ncc1-c1ccc(CNc2ncc(C#N)cc2C(=O)N[C@@H](C)c2ccc(F)cc2)cc1 [Example 121]     6.00 to 7.00
10  O=C(NCc1ccc(F)c(F)c1)c1cccnc1NCc1ccc(-c2cnc3[nH]ncc3c2)nc1 [Example 327]           > 7.00
11  C[C@H](NC(=O)c1cc(C#N)cnc1NCc1ccc(-c2cnc(N)c(CO)c2)cc1)c1ccc(F)cc1 [Example 136]           > 7.00
12  C[C@H](NC(=O)c1cc(C#N)cnc1NCc1ccc(-c2cnc(N)c(C(=O)N(C)C)c2)cc1)c1ccc(F)cc1 [Example 205]     6.00 to 7.00
13  C[C@H](NC(=O)c1cc(C#N)cnc1NCc1ccc(-c2cnc(N)c(O[C@H]3CCC[C@@H]3N)n2)cc1)c1ccc(F)cc1 [Example 168]           > 7.00
14  Nc1ncnn2ccc(-c3ccc(CNc4ncc(C(F)(F)F)cc4C(=O)NCc4ccc(F)c(F)c4)cc3)c12 [Example 176]           > 7.00

====

# Measured on: PDK1 (Homo sapiens (Human), UniProt O15530)
# Method notes: PDK1 kinase assay (coupled PDK1/AKT/FAM-crosstide assay, IMAP fluorescence polarization)
# Type: biochemical
# Experimental conditions: inhibition of PDK1 in vitro
Quantity name: IC50

> print(dat)
                                    compound  endpoint.result
 1  Nc1ncnc2c1c(-c1ccc(CNc3ncc(C(F)(F)F)cc3C(=O)Nc3ccc(F)cc3)cc1)cn2CCCCO         < 100 nM
 2  C[C@H](NC(=O)c1cc(C#N)cnc1NCc1ccc(-c2cnc3[nH]nc(N)c3c2)cc1)c1ccc(F)cc1         < 100 nM
 3  Nc1ncc(-c2ccc(CNc3ncc(C(F)(F)F)cc3C(=O)Nc3ccc(F)cc3)cc2)nc1CC[C@@H]1CCCN1         < 100 nM
 4  C[C@H](NC(=O)c1cc(C#N)cnc1NCc1ccc(-c2cnc(N)c(C(=O)NCCCO)n2)cc1)c1ccc(F)cc1         < 100 nM
 5  C[C@H](NC(=O)c1cc(C(F)(F)F)cnc1NCc1ccc(-c2cnc3[nH]nc(N)c3c2)cc1)c1ccc(Br)cc1         < 100 nM
 6  N#CCc1n[nH]c2ncc(-c3ccc(CNc4ncc(C(F)(F)F)cc4C(=O)Nc4ccc(F)cc4)cc3)cc12         < 100 nM
 7  C[C@H](NC(=O)c1nc(C#N)cnc1NCc1ccc(-c2cnc3[nH]ncc3c2)cc1)c1ccc(F)c(F)c1         < 100 nM
 8  N#Cc1cnc(NCc2ccc(-c3c[nH]c4ncnc(N)c34)cc2)c(C(=O)Nc2ccc(F)cc2)n1         < 100 nM
 9  C[C@H](NC(=O)c1nc(C#N)cnc1NCc1ccc(-c2cnc(N)c(CCC(C)(C)N)n2)cc1)c1ccc(F)c(F)c1         < 100 nM
10  C[C@H](NC(=O)c1cc(C#N)cnc1NCc1ccc(-c2ccn3ncnc(N)c23)cc1)c1ccc(F)cc1         < 100 nM
11  Nc1n[nH]c2ncc(-c3ccc(CNc4ncc(C(F)(F)F)cc4C(=O)NCc4cscn4)cc3)cc12         < 100 nM
12  Nc1n[nH]c2ncc(-c3ccc(CNc4ncc(C(F)(F)F)cc4C(=O)NCC4CCCO4)cc3)cc12 (centres unmarked)         < 100 nM
13  Nc1n[nH]c2ncc(-c3ccc(CNc4ncc(C(F)(F)F)cc4C(=O)Nc4ccncc4)cc3)cc12         < 100 nM
14  C[C@H](NC(=O)c1nc(C#N)cnc1NCc1ccc(-c2cnc(N)c(CCCO)n2)cc1)c1ccc(F)c(F)c1         < 100 nM
15  C[C@H](NC(=O)c1cccnc1NCc1ccc(-c2cnc3[nH]c(=O)[nH]c3c2)cc1)c1ccc(F)cc1         < 100 nM
16  C[C@H](NC(=O)c1cc(C#N)cnc1NCc1ccc(-c2cnc(N)c(C(N)=O)c2)cc1)c1ccc(F)cc1         < 100 nM
17  N#Cc1cnc(NCc2ccc(-c3cnc(N)cn3)cc2)c(C(=O)NCc2ccc(F)c(F)c2)c1         < 100 nM
18  C[C@H](NC(=O)c1cc(C#N)cnc1NCc1ccc(-c2cnc3c(c2)CCN3)cc1)c1ccc(F)cc1         < 100 nM
19  C[C@H](NC(=O)c1nc(C#N)cnc1NCc1ccc(-c2cnc3[nH]nc(N)c3c2)nc1)c1ccc(F)c(F)c1         < 100 nM
20  C[C@H](NC(=O)c1cc(C#N)cnc1NCc1ccc(-c2cnc(N)c(C(=O)N(C)C)n2)cc1)c1ccc(F)cc1         < 100 nM
21  Nc1n[nH]c2ncc(-c3ccc(CNc4ncc(C(F)(F)F)cc4C(=O)NC4CCCC4)cc3)cc12         < 100 nM
22  Cc1cc(-c2ccc(CNc3ncc(C#N)cc3C(=O)N[C@@H](C)c3ccc(F)cc3)cc2)cnc1N         < 100 nM
23  C[C@H](NC(=O)c1nccnc1NCc1ccc(-c2cnc3[nH]c(=O)[nH]c3c2)cc1)c1ccc(F)cc1         < 100 nM
24  CNc1n[nH]c2ncc(-c3ccc(CNc4ncc(C#N)nc4C(=O)N[C@@H](C)c4ccc(F)c(F)c4)cc3)cc12         < 100 nM
25  Nc1cnc(-c2ccc(CNc3ncc(C(F)(F)F)cc3C(=O)Nc3ccc(F)cc3)cc2)cn1         < 100 nM
26  Nc1n[nH]c2ncc(-c3ccc(CNc4ncc(C(F)(F)F)cc4C(=O)NC4CC4)cc3)cc12   100 to 1000 nM
27  Nc1ncc(-c2ccc(CNc3ncc(C(F)(F)F)cc3C(=O)Nc3ccc(F)cc3)cc2)nc1CC1CCNC1 (centres unmarked)         < 100 nM
28  C[C@@H](NC(=O)c1nc(C#N)cnc1NCc1ccc(-c2cnc3[nH]nc(N)c3c2)cc1)c1ccc(F)c(F)c1   100 to 1000 nM
29  C[C@H](NC(=O)c1cc(C#N)cnc1NCc1ccc(-c2cnc(N)c(N)c2)cc1)c1ccc(F)cc1         < 100 nM
